Parameter target mRNA inhibition: see the listing below.
- TARGET DESC: APOL1
- MEASUREMENT CONDITIONS: ASO, A431, 2 µM
After the bases stand the sugars from the 5' end (letter, count) and the backbone: PS all phosphorothioate, else s phosphorothioate and o phosphodiester by linkage. Methylation of C is not given here. e = 2'-O-(2-methoxyethyl) (MOE); k = constrained ethyl (cEt); d = 2'-deoxy (DNA)

# SEQUENCE STRING, target mRNA inhibition
rows = [
    ("TCAGATGGGTACTTCT (sugars kkddddkekekkdddd, PS)", "62%"),
    ("GTGTTATATTTGATCC (sugars kkddddkekekddddd, PS)", "78%"),
    ("GTGTTATATTTGATCC (sugars kkkddddkekekdddd, PS)", "75%"),
    ("TTTGTAAGTGCAACCA (sugars kkddddekekeddddd, PS)", "97%"),
    ("GTTTTGTAAGTGCAAC (sugars kkddddkekekkdddd, PS)", "62%"),
]
